Listed next: entries and their corresponding pIC50.
target: EZH2 within the PRC2 complex (Homo sapiens (Human))
assay_summary: EZH2 methyltransferase SPA, mononucleosome substrate (Assay Protocol 1)
Format: biochemical
test_conditions: HeLa mononucleosome substrate, 3H-SAM, ≦10 nM approaches limit of detection
Field pIC50 (float): negative decimal logarithm of the concentration in molar.

Solved cases (5 shown):
>  <molecule>
Cc1cc(C)c(CNC(=O)c2csc(C(O)C3CCN(C(=O)OC(C)(C)C)CC3)c2C)c(=O)[nH]1 (centres unmarked)

>  <target>
EZH2 within the PRC2 complex (Homo sapiens (Human))

>  <reported_measurement>
6.80

$$$$
>  <molecule>
Cc1cc(C)c(CNC(=O)c2csc(-c3cnn(C4CCNCC4)c3)c2C)c(=O)[nH]1

>  <target>
EZH2 within the PRC2 complex (Homo sapiens (Human))

>  <reported_measurement>
6.30

$$$$
>  <molecule>
CCN(c1scc(C(=O)NCc2c(C(F)(F)F)cc(C)[nH]c2=O)c1C)C1CCOCC1

>  <target>
EZH2 within the PRC2 complex (Homo sapiens (Human))

>  <reported_measurement>
7.10

$$$$
>  <molecule>
Cc1cc(C)c(CNC(=O)c2csc(C3CCN(C(=O)OC(C)(C)C)C3)c2C)c(=O)[nH]1 (centres unmarked)

>  <target>
EZH2 within the PRC2 complex (Homo sapiens (Human))

>  <reported_measurement>
6.60

$$$$
>  <molecule>
Cc1cc(C)c(CNC(=O)c2cnn(-c3ccccc3)c2C)c(=O)[nH]1

>  <target>
EZH2 within the PRC2 complex (Homo sapiens (Human))

>  <reported_measurement>
4.70

$$$$

# lookup: pIC50 of "CCN(c1scc(C(=O)NCc2c(C)cc(C)n(C)c2=O)c1C)C1CCOCC1"
7.00

What do you have for Cc1cc(C)c(CNC(=O)c2csc(C(C)N3CCOCC3)c2C)c(=O)[nH]1 (centres unmarked) ?
6.20

---

IC50 overview
target: EZH2 within the PRC2 complex (Homo sapiens (Human), UniProt Q15910)
Sequence (Q15910 whole entry): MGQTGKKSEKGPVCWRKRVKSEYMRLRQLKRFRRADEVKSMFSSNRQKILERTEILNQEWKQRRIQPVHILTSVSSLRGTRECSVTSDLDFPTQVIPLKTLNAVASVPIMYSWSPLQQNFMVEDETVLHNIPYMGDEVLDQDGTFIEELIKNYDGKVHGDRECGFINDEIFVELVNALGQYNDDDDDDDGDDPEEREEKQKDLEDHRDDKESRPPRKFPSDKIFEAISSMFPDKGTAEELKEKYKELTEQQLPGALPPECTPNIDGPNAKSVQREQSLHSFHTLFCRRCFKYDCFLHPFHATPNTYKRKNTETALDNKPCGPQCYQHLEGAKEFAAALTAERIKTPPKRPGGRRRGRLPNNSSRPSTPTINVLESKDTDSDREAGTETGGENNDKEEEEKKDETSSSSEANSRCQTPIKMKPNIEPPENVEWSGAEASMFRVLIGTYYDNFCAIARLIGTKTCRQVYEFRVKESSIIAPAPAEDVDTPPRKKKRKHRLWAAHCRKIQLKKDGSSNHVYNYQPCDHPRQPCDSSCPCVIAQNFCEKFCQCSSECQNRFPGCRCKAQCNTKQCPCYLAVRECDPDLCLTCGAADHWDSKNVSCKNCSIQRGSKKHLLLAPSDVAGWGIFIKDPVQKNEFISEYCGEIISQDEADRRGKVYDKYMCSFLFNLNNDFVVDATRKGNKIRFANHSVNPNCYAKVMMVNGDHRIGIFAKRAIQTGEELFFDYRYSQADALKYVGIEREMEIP
Sequence (O75530 whole entry partner): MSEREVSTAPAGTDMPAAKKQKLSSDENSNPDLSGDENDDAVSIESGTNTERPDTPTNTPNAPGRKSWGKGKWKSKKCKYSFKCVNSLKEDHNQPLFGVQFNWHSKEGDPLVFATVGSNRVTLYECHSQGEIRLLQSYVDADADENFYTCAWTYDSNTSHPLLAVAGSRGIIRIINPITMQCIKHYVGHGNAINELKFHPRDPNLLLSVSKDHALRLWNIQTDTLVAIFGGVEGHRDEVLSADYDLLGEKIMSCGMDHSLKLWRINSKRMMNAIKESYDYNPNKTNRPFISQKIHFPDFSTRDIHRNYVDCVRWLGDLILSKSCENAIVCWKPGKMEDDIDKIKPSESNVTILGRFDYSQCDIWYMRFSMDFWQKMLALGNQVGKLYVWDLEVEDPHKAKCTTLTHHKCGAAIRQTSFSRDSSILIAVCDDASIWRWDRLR
Sequence (Q15022 whole entry partner): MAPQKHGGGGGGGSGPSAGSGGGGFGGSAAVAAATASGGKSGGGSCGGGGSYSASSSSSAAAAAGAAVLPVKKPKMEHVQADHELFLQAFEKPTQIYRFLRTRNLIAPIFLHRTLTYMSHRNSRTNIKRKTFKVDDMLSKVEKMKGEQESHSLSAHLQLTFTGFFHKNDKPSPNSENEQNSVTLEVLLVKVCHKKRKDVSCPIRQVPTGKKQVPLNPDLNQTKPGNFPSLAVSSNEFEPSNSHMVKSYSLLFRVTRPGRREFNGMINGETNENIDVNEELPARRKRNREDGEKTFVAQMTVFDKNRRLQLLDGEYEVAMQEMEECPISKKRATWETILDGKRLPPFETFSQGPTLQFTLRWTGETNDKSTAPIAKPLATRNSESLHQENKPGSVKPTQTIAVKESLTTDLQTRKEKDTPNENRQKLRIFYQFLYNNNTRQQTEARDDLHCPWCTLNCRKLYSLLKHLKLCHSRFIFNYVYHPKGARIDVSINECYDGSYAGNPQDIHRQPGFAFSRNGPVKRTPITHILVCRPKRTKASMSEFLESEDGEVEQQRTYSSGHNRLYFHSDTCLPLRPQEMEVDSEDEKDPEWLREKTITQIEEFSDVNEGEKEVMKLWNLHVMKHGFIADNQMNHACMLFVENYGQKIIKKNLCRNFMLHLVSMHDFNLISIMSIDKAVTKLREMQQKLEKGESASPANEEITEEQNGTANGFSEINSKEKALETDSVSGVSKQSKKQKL
Sequence (Q09028 whole entry partner): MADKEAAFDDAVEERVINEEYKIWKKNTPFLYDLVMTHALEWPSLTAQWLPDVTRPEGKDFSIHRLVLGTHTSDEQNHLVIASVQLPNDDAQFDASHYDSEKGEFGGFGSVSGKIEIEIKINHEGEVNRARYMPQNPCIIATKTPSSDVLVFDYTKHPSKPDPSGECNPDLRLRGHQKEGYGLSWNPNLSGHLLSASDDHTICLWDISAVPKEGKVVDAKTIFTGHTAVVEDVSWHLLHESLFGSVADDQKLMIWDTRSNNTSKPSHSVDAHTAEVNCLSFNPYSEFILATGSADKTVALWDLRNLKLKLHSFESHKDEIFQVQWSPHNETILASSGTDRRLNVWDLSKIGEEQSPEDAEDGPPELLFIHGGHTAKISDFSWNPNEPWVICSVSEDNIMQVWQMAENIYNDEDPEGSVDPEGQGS
Sequence (Q6ZN18 whole entry partner): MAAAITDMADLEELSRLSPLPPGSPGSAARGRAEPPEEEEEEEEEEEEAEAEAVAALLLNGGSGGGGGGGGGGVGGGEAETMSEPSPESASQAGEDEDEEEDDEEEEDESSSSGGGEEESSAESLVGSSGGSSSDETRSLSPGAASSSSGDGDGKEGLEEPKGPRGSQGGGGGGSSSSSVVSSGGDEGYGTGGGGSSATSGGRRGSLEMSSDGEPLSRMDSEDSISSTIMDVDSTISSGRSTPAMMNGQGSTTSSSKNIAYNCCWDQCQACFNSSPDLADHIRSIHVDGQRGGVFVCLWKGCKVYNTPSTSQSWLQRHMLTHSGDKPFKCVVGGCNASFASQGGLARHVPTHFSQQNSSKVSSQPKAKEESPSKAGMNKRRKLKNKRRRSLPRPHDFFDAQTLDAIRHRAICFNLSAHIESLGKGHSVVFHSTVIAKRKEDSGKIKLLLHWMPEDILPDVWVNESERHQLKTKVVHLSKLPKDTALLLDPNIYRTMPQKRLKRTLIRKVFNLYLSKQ
assay_summary: EZH2 methyltransferase SPA, biotinylated histone H3K27 peptide substrate (Assay Protocol 2)
Assay type: biochemical
test_conditions: 3H-SAM, ≦10 nM approaches limit of detection
Your answer should be a number followed by the unit of measure.

Answered examples (5):
>  <compound>
Cc1cc(C)c(CNC(=O)c2csc(C(O)C3CCNCC3)c2C)c(=O)[nH]1 (centres unmarked)

>  <IC50>
316 nM

$$$$
>  <compound>
Cc1cc(C)c(CNC(=O)c2csc(-c3cnn(C4CCNCC4)c3)c2C)c(=O)[nH]1

>  <IC50>
3980 nM

$$$$
>  <compound>
C/C=C(/c1scc(C(=O)NCc2c(C)cc(C)[nH]c2=O)c1C)[C@H]1CC[C@H](N)CC1

>  <IC50>
13 nM

$$$$
>  <compound>
CCN(c1csc(C(=O)NCc2c(C)cc(C)[nH]c2=O)c1C)[C@H]1CC[C@@H](N(C)C)CC1

>  <IC50>
50 nM

$$$$
>  <compound>
CCN(c1sc(C#N)c(C(=O)NCc2c(C)cc(C)[nH]c2=O)c1C)[C@H]1CC[C@H](N(C)C)CC1

>  <IC50>
25 nM

$$$$

GET /values?readout=IC50&system=EZH2 within the PRC2 complex (Homo sapiens (Human), UniProt Q15910)&item= "C/C=C(/CCCN1CCN(C)CC1)c1scc(C(=O)NCc2c(C)cc(C)[nH]c2=O)c1C"
251 nM

Continue with "Cc1cc(C)c(CNC(=O)c2scc(OC(C)C)c2C)c(=O)[nH]1"
25100 nM

Field entry: "C/C=C(/c1scc(C(=O)NCc2c(C)cc(C)[nH]c2=O)c1C)[C@H]1CC[C@H](NC(=O)OC(C)(C)C)CC1"
100 nM

---

target: EZH2 within the PRC2 complex (Homo sapiens (Human))
assay_summary: EZH2 methyltransferase SPA, biotinylated histone H3K27 peptide substrate (Assay Protocol 2)
Assay type: biochemical
test_conditions: 3H-SAM, ≦10 nM approaches limit of detection
measured_property: IC50 (µM)
The figure you give is taken to be in µM; do not add the unit.

Recorded IC50, per entry:
>  <compound>
CC[C@@H](c1scc(C(=O)NCc2c(C)cc(C)[nH]c2=O)c1C)N1CCC(N(C)C)CC1

>  <units>
µM

>  <IC50>
0.02

$$$$
>  <compound>
CCN(c1scc(C(=O)NCc2c(C)cc(C)[nH]c2=O)c1C)C1CCN(C(=O)OC(C)(C)C)CC1

>  <units>
µM

>  <IC50>
0.02

$$$$
>  <compound>
CCN(c1sc(Br)c(C(=O)NCc2c(C)cc(C)[nH]c2=O)c1C)C1CCOCC1

>  <units>
µM

>  <IC50>
0.02

$$$$
>  <compound>
CCN(c1scc(C(=O)NCc2c(C)cc(C)[nH]c2=O)c1C)[C@H]1CC[C@H](N(C)C)CC1

>  <units>
µM

>  <IC50>
0.013

$$$$
>  <compound>
Cc1cc(C)c(CNC(=O)c2csc(C(O)C3CCN(C(=O)OC(C)(C)C)CC3)c2C)c(=O)[nH]1 (stereo not shown)

>  <units>
µM

>  <IC50>
1.59

$$$$

Then there is this compound:
Query the reported IC50 for EZH2 within the PRC2 complex (Homo sapiens (Human)); item: CCC(c1scc(C(=O)NCc2c(C)cc(C)[nH]c2=O)c1C)[C@H]1CC[C@H](N(C)C)CC1 (single isomer, unassigned; (-)) [Example 44]
0.02

---

Listed here are molecules together with their documented pIC50.
target: EZH2 within the PRC2 complex (Homo sapiens (Human))
assay_summary: EZH2 methyltransferase SPA, biotinylated histone H3K27 peptide substrate (Assay Protocol 2)
Type: biochemical
test_conditions: 3H-SAM, ≦10 nM approaches limit of detection
Description: Compounds contained herein were evaluated for their ability to inhibit the methyltransferase activity of EZH2 within the PRC2 complex. […] Enzyme activity was measured in a scintillation proximity assay (SPA) where a tritiated methyl group is transferred from 3H-SAM to a lysine residue on a biotinylated, unmethylated peptide substrate derived from histone H3. The peptides were captured on streptavidin-coated SPA beads and the resulting signal was read on a ViewLux plate reader. […] • 4. […] Read plates • 2. […]
Keep in mind that pIC50 stands for -log10 of concentration in molar terms.

Past entries and their recorded results:
>  <molecule>
CCOC(=O)N(CC)c1scc(C(=O)NCc2c(C)cc(C)[nH]c2=O)c1C

>  <measured_property>
pIC50

>  <reported_measurement>
6.70

$$$$
>  <molecule>
Cc1cc(C)c(CNC(=O)c2csc(C3CCN(C(=O)OC(C)(C)C)C3)c2C)c(=O)[nH]1 (stereo not shown)

>  <measured_property>
pIC50

>  <reported_measurement>
5.40

$$$$

Form: Entry = CCC(c1scc(C(=O)NCc2c(C)cc(C)[nH]c2=O)c1C)[C@H]1CC[C@@H](N(C)C)CC1 (single isomer, unassigned; (-)) [Example 47] | System = EZH2 within the PRC2 complex (Homo sapiens (Human)) | pIC50 = ____
7.89

Now this one: CCN(c1sc(C2CCN(S(C)(=O)=O)C2)c(C(=O)NCc2c(C)cc(C)[nH]c2=O)c1C)C1CCOCC1 (stereo not shown)
6.30

---

target: EZH2 within the PRC2 complex (Homo sapiens (Human))
assay_summary: EZH2 methyltransferase SPA, biotinylated histone H3K27 peptide substrate (Assay Protocol 2)
Format: biochemical
test_conditions: 3H-SAM, ≦10 nM approaches limit of detection
Structures can show the parent of a compound that is named as a salt.
List of IC50 values.

>  <compound>
CCN(c1csc(C(=O)NCc2c(C)cc(C)[nH]c2=O)c1C)[C@H]1CC[C@H](N(C)C)CC1 [Example 4]

>  <IC50>
25 nM

$$$$
>  <compound>
Cc1cc(C)c(CNC(=O)c2csc(C3CCCN3C3CCOCC3)c2C)c(=O)[nH]1 (stereo not shown) [Example 22]

>  <IC50>
6310 nM

$$$$
>  <compound>
CCN(c1sc(C#N)c(C(=O)NCc2c(C)cc(C)[nH]c2=O)c1C)C1CCOCC1 [Example 55, hydrochloride]

>  <IC50>
79 nM

$$$$
>  <compound>
CCN(c1scc(C(=O)NCc2c(OC)cc(C)[nH]c2=O)c1C)[C@H]1CC[C@H](N(C)C)CC1 [Example 18]

>  <IC50>
13 nM

$$$$
>  <compound>
Cc1cc(C)c(CNC(=O)c2csc(C(O)[C@H]3CC[C@H](N(C)C)CC3)c2C)c(=O)[nH]1 (stereo partly shown) [Example 38]

>  <IC50>
158 nM

$$$$

Returns the measured IC50 for the input compound. Input: Cc1cc(C)c(CNC(=O)c2csc(N3CCCC3C)c2C)c(=O)[nH]1 (stereo not shown) [Example 25]
630 nM

Next up: CCN(c1sc(N2CCN(C)CC2)c(C(=O)NCc2c(C)cc(C)[nH]c2=O)c1C)C1CCOCC1 [Example 56, hydrochloride]
501 nM

Same question, CCN(CC)c1sc(Br)c(C(=O)NCc2c(C)cc(C)[nH]c2=O)c1C [Example 52] this time
316 nM

Continue with Cc1cc(C)c(CNC(=O)c2csc(C(C)N3CCOCC3)c2C)c(=O)[nH]1 (stereo not shown) [Example 26]
5010 nM

Next record, please: CCN(c1sc(C2CCNCC2)c(C(=O)NCc2c(C)cc(C)[nH]c2=O)c1C)C1CCOCC1 [Example 60, hydrochloride]
631 nM

Subsequent entry: CCN(c1sc(-c2ccoc2)c(C(=O)NCc2c(C)cc(C)[nH]c2=O)c1C)C1CCOCC1 [Example 75]
25 nM

Also CCN(c1sc(Cl)c(C(=O)NCc2c(C)cc(C)[nH]c2=O)c1C)C1CCOCC1 [Example 53] ?
16 nM

Repeat for the following compound: CCN(c1sc(C2=CCN(C)CC2)c(C(=O)NCc2c(C)cc(C)[nH]c2=O)c1C)C1CCOCC1 [Example 61]
501 nM
